- System: OCI-LY7 cells
- TEST METHOD NOTES: Cell viability assay (CellTiter-Glo, 72 h)
- Assay type: cell-based
- PARTICULARS: Homo sapiens, read-out: Results from inhibition of OCI-LY7 cells (IC50)
Entries and their measured IC50 follow.

ENTRY SMILES: CCC(=O)Nc1cccc(Nc2ncc3cc(-c4c(C)cc[nH]c4=O)ccc3n2)c1
IC50: < 0.5 µM
--
ENTRY SMILES: C=CC(=O)N(CC)c1cc(Nc2ncc3cc(-c4c(C)cc[nH]c4=O)ccc3n2)ccc1OC
IC50: < 0.5 µM
--
ENTRY SMILES: Cc1cc[nH]c(=O)c1-c1ccc2nc(Nc3cccc(N(C)C(=O)/C=C/CN(C)C)c3)ncc2c1
IC50: < 0.5 µM
--
ENTRY SMILES: C=CC(=O)N(CC)c1cccc(Nc2ncc3cc(-c4c(C)ccn(-c5ncco5)c4=O)ccc3n2)c1
IC50: 0.5 to 2.5 µM
--
ENTRY SMILES: [2H]C([2H])=C([2H])C(=O)N(c1cccc(Nc2ncc3cc(-c4c(C)cc[nH]c4=O)ccc3n2)c1)C([2H])([2H])C([2H])([2H])[2H]
IC50: < 0.5 µM
--
ENTRY SMILES: C=CC(=O)N(CC)c1cccc(Nc2ncc3cc(-c4c(C)ccn(C(=O)OCc5ccccc5)c4=O)ccc3n2)c1
IC50: < 0.5 µM
--
ENTRY SMILES: C=CC(=O)Nc1cccc(Nc2ncc3cc(-c4c(C)ccn(-c5ccc(N6CCOCC6)cc5)c4=O)ccc3n2)c1
IC50: < 0.5 µM
--
ENTRY SMILES: Cc1cc[nH]c(=O)c1-c1ccc2nc(Nc3ccc4c(c3)NCCO4)ncc2c1
IC50: < 0.5 µM
--
ENTRY SMILES: C=CC(=O)N(CCOC)c1cccc(Nc2ncc3cc(-c4c(C)cc[nH]c4=O)ccc3n2)c1
IC50: < 0.5 µM
--
ENTRY SMILES: [2H]C([2H])=C([2H])C(=O)N(c1cccc(Nc2ncc3cc(-c4c(C)cc[nH]c4=O)ccc3n2)c1)C([2H])([2H])[2H]
IC50: < 0.5 µM
--
ENTRY SMILES: [2H]C([2H])=C([2H])C(=O)N(CCOC)c1cccc(Nc2ncc3cc(-c4c(C)cc[nH]c4=O)ccc3n2)c1
IC50: < 0.5 µM
--
ENTRY SMILES: C=CC(=O)N1CCOc2ccc(Nc3ncc4cc(-c5c(C)cc[nH]c5=O)ccc4n3)cc21
IC50: 0.5 to 2.5 µM
--
ENTRY SMILES: Cc1cc[nH]c(=O)c1-c1ccc2nc(Nc3cccc(NC(=O)[C@@H](N)C(C)C)c3)ncc2c1
IC50: < 0.5 µM
--
ENTRY SMILES: C=CC(=O)N(CC)c1cc(Nc2ncc3cc(-c4c(C)cc[nH]c4=O)ccc3n2)ccc1F
IC50: 0.5 to 2.5 µM
--
ENTRY SMILES: Cc1ccn(-c2ccc(N3CCOCC3)cc2)c(=O)c1-c1ccc2nc(Nc3cccc(N)c3)ncc2c1
IC50: < 0.5 µM

====

- System: OCI-LY7 cells
- TEST METHOD NOTES: Cell viability assay (CellTiter-Glo, 72 h)
- Format: cell-based
- PARTICULARS: Homo sapiens, read-out: Results from inhibition of OCI-LY7 cells (IC50)
READOUT NAME: IC50

COMPOUND: CCN(C(=O)/C=C/CN(C)C)c1cccc(Nc2ncc3cc(-c4c(C)cc[nH]c4=O)ccc3n2)c1 [Example 34]
SYSTEM NAME: OCI-LY7 cells
READOUT NAME: IC50
VALUE MEASURED: 0.5 to 2.5 µM
--
COMPOUND: C=CC(=O)N(CC)c1cccc(Nc2ncc3cc(-c4c(C)ccn(C(=O)N(C)C)c4=O)ccc3n2)c1 [Example 30]
SYSTEM NAME: OCI-LY7 cells
READOUT NAME: IC50
VALUE MEASURED: ≥ 2.5 µM
--
COMPOUND: C/C=C/C(=O)Nc1cccc(Nc2ncc3cc(-c4c(C)cc[nH]c4=O)ccc3n2)c1 [Example 4]
SYSTEM NAME: OCI-LY7 cells
READOUT NAME: IC50
VALUE MEASURED: < 0.5 µM
--
COMPOUND: C=CC(=O)N(c1cccc(Nc2ncc3cc(-c4c(C)cc[nH]c4=O)ccc3n2)c1)C(C)C [Example 27]
SYSTEM NAME: OCI-LY7 cells
READOUT NAME: IC50
VALUE MEASURED: < 0.5 µM
--
COMPOUND: C=CC(=O)NCC(=O)Nc1cccc(Nc2ncc3cc(-c4c(C)cc[nH]c4=O)ccc3n2)c1 [Example 10]
SYSTEM NAME: OCI-LY7 cells
READOUT NAME: IC50
VALUE MEASURED: < 0.5 µM
--
COMPOUND: C=CC(=O)N(CC)c1cccc(Nc2ncc3cc(-c4c(C)cc[nH]c4=O)ccc3n2)c1 [Example 26]
SYSTEM NAME: OCI-LY7 cells
READOUT NAME: IC50
VALUE MEASURED: < 0.5 µM
--
COMPOUND: CCNc1cccc(Nc2ncc3cc(-c4c(C)cc[nH]c4=O)ccc3n2)c1 [Example 25]
SYSTEM NAME: OCI-LY7 cells
READOUT NAME: IC50
VALUE MEASURED: < 0.5 µM
--
COMPOUND: C=CC(=O)Nc1cccc(Nc2ncc3cc(-c4c(C)cc[nH]c4=O)ccc3n2)c1 [Example 2]
SYSTEM NAME: OCI-LY7 cells
READOUT NAME: IC50
VALUE MEASURED: < 0.5 µM

====

- SYSTEM NAME: Btk (Homo sapiens, UniProt Q06187)
- Sequence (Q06187 whole entry): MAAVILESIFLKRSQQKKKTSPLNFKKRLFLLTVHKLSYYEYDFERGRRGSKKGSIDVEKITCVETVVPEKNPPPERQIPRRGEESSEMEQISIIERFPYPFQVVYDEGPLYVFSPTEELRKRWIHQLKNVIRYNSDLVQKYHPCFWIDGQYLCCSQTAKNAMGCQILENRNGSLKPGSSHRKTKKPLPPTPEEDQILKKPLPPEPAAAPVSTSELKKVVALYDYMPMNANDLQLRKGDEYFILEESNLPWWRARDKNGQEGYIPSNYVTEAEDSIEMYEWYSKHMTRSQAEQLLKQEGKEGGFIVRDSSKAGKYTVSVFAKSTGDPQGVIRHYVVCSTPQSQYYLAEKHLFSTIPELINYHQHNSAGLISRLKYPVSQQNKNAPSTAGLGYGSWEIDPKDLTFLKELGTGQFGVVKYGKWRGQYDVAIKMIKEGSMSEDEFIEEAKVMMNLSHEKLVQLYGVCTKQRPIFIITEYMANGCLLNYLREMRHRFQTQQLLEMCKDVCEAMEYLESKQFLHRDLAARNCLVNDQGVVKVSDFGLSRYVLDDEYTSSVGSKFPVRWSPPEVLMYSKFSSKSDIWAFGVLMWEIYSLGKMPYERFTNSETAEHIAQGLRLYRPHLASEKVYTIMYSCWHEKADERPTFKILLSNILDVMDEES

MOLECULE: Cc1cc[nH]c(=O)c1-c1ccc2nc(Nc3cccc(NC(=O)/C=C/CN(C)C)c3)ncc2c1 [Example 5]
SYSTEM NAME: Btk (Homo sapiens, UniProt Q06187)
IC50: < 0.1 µM
//
MOLECULE: [2H]C([2H])=C([2H])C(=O)N(CC)c1cccc(Nc2ncc3cc(-c4c(C)cc[nH]c4=O)ccc3n2)c1 [Example 48]
SYSTEM NAME: Btk (Homo sapiens, UniProt Q06187)
IC50: < 0.1 µM
//
MOLECULE: Cc1ccn(-c2cccc(C(F)(F)F)c2)c(=O)c1-c1ccc2nc(Nc3cccc(N)c3)ncc2c1 [Example 12]
SYSTEM NAME: Btk (Homo sapiens, UniProt Q06187)
IC50: 1 to 10 µM
//
MOLECULE: [2H]C([2H])=C([2H])C(=O)N(C)c1cccc(Nc2ncc3cc(-c4c(C)cc[nH]c4=O)ccc3n2)c1 [Example 45]
SYSTEM NAME: Btk (Homo sapiens, UniProt Q06187)
IC50: < 0.1 µM
//
MOLECULE: C=CC(=O)Nc1cccc(Nc2ncc3cc(-c4c(C)ccn(-c5cccc(C(F)(F)F)c5)c4=O)ccc3n2)c1 [Example 13]
SYSTEM NAME: Btk (Homo sapiens, UniProt Q06187)
IC50: 0.1 to 1 µM
//
MOLECULE: Cc1cc[nH]c(=O)c1-c1ccc2nc(Nc3cccc(NC(=O)CCN(C)C)c3)ncc2c1 [Example 11]
SYSTEM NAME: Btk (Homo sapiens, UniProt Q06187)
IC50: < 0.1 µM
//
MOLECULE: C=CC(=O)N1CCOc2ccc(Nc3ncc4cc(-c5c(C)cc[nH]c5=O)ccc4n3)cc21 [Example 42]
SYSTEM NAME: Btk (Homo sapiens, UniProt Q06187)
IC50: < 0.1 µM
//
MOLECULE: C=CC(=O)N1CCC[C@H]1C(=O)Nc1cccc(Nc2ncc3cc(-c4c(C)cc[nH]c4=O)ccc3n2)c1 [Example 21]
SYSTEM NAME: Btk (Homo sapiens, UniProt Q06187)
IC50: < 0.1 µM
//
MOLECULE: C=CC(=O)Nc1cccc(Nc2ncc3cc(-c4c(C)cc[nH]c4=O)ccc3n2)c1 [Example 2]
SYSTEM NAME: Btk (Homo sapiens, UniProt Q06187)
IC50: < 0.1 µM
//
MOLECULE: C=C(F)C(=O)N(CC)c1cccc(Nc2ncc3cc(-c4c(C)cc[nH]c4=O)ccc3n2)c1 [Example 35]
SYSTEM NAME: Btk (Homo sapiens, UniProt Q06187)
IC50: < 0.1 µM
//
MOLECULE: Cc1cc[nH]c(=O)c1-c1ccc2nc(Nc3cccc(N)c3)ncc2c1 [Example 1]
SYSTEM NAME: Btk (Homo sapiens, UniProt Q06187)
IC50: < 0.1 µM
//
MOLECULE: C=CC(=O)N(CC)c1cc(Nc2ncc3cc(-c4c(C)cc[nH]c4=O)ccc3n2)ccc1C [Example 40]
SYSTEM NAME: Btk (Homo sapiens, UniProt Q06187)
IC50: < 0.1 µM
//
MOLECULE: Cc1cc[nH]c(=O)c1-c1ccc2nc(Nc3ccc4c(c3)NCCO4)ncc2c1 [Example 41]
SYSTEM NAME: Btk (Homo sapiens, UniProt Q06187)
IC50: < 0.1 µM
//
MOLECULE: C=CC(=O)N(CC)c1cc(Nc2ncc3cc(-c4c(C)cc[nH]c4=O)ccc3n2)ccc1F [Example 39]
SYSTEM NAME: Btk (Homo sapiens, UniProt Q06187)
IC50: < 0.1 µM
//
MOLECULE: C=CC(=O)N(C)c1cccc(Nc2ncc3cc(-c4c(C)cc[nH]c4=O)ccc3n2)c1 [Example 23]
SYSTEM NAME: Btk (Homo sapiens, UniProt Q06187)
IC50: < 0.1 µM
//
MOLECULE: CC#CC(=O)N(CC)c1cccc(Nc2ncc3cc(-c4c(C)cc[nH]c4=O)ccc3n2)c1 [Example 33]
SYSTEM NAME: Btk (Homo sapiens, UniProt Q06187)
IC50: < 0.1 µM
//
MOLECULE: C=CC(=O)N(CC)c1cccc(Nc2ncc3cc(-c4c(C)ccn(C(=O)OCc5ccccc5)c4=O)ccc3n2)c1 [Example 31]
SYSTEM NAME: Btk (Homo sapiens, UniProt Q06187)
IC50: < 0.1 µM
//
MOLECULE: C=CC(=O)N(CC)c1cccc(Nc2ncc3cc(-c4c(C)ccn(C(=O)OCC)c4=O)ccc3n2)c1 [Example 28]
SYSTEM NAME: Btk (Homo sapiens, UniProt Q06187)
IC50: < 0.1 µM
//
MOLECULE: C=CC(=O)Nc1cccc(Nc2ncc3cc(-c4c(C)ccn(-c5ccc(N6CCOCC6)cc5)c4=O)ccc3n2)c1 [Example 15]
SYSTEM NAME: Btk (Homo sapiens, UniProt Q06187)
IC50: 0.1 to 1 µM
//
MOLECULE: C/C=C/C(=O)Nc1cccc(Nc2ncc3cc(-c4c(C)cc[nH]c4=O)ccc3n2)c1 [Example 4]
SYSTEM NAME: Btk (Homo sapiens, UniProt Q06187)
IC50: < 0.1 µM
//
MOLECULE: C=CC(=O)N(c1cccc(Nc2ncc3cc(-c4c(C)cc[nH]c4=O)ccc3n2)c1)C(C)C [Example 27]
SYSTEM NAME: Btk (Homo sapiens, UniProt Q06187)
IC50: < 0.1 µM
//
MOLECULE: [2H]C([2H])=C([2H])C(=O)N(c1cccc(Nc2ncc3cc(-c4c(C)cc[nH]c4=O)ccc3n2)c1)C([2H])([2H])C([2H])([2H])[2H] [Example 49]
SYSTEM NAME: Btk (Homo sapiens, UniProt Q06187)
IC50: < 0.1 µM
//
MOLECULE: C=CC(=O)Nc1cccc(Nc2ncc3cc(-c4c(C)ccn(C)c4=O)ccc3n2)c1 [Example 17]
SYSTEM NAME: Btk (Homo sapiens, UniProt Q06187)
IC50: 0.1 to 1 µM
//
MOLECULE: C=CC(=O)N(CCN(C)C)c1cccc(Nc2ncc3cc(-c4c(C)cc[nH]c4=O)ccc3n2)c1 [Example 43]
SYSTEM NAME: Btk (Homo sapiens, UniProt Q06187)
IC50: < 0.1 µM
//
MOLECULE: C=CC(=O)N(CC)c1cccc(Nc2ncc3cc(-c4c(C)cc[nH]c4=O)ccc3n2)c1 [Example 26]
SYSTEM NAME: Btk (Homo sapiens, UniProt Q06187)
IC50: < 0.1 µM
//
MOLECULE: Cc1cc[nH]c(=O)c1-c1ccc2nc(Nc3cccc(NC(=O)CN)c3)ncc2c1 [Example 9]
SYSTEM NAME: Btk (Homo sapiens, UniProt Q06187)
IC50: < 0.1 µM
